Origin of measurements: paper PMC7515829

Would you mind telling me the reported IC50 of each entry?
Test system: MM.1R
test details: Cell death IC50 by PI staining/FACS
Assay type: cell-based
experimental context: Human B lymphoblast/EBV(−), 0.1–15 µM, 6 h (suspension) or 12 h (adherent cells), mean ± SEM, read-out: Peptide IC50 (µM), cell death, MM.1R
Numbers only, in µM.

HAIYPRH-LQQAQKEN [Tf-D-HKC8] :: 1.6

--- query ---
Write down measured IC50 (MM.1R) for this substance. HAIYPRH-ITAVAKRLQQAQKEN [Tf-D-HKC15]
2.3
